# EXPERIMENT SUMMARY: Cell Proliferation Assay against the TMD8 Cell Line (Caspase readout at 16 hrs) (AID 651712);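 on caspase activation: 0% = DMSO and 100% = 9.2 µM bortezomib caspase activation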
# MEASUREMENT PARAMETERS: TMD8 lymphoma cells, caspase activation luminescence; series mostly up to 46.1 µM
# Description: One class of targeted therapeutics showing early clinical success in killing of ABC DLBCL lines are small molecule inhibitors of the Bruton tyrosine kinase (BTK) 11. Thus, we chose to investigate what additional compounds, if any, would synergize with the BTK inhibitor Ibrutinib (PCI-32765). […]
Records with an inconclusive call do not appear. The source made the active and inactive calls. The call rests on the fitted dose curve; in most records, active means well fitted activation curve with a large enough effect; inconclusive means small, poorly fitted or top-dose-only effect; inactive means flat fitted curve, though single readings scatter.
Entry note: the call must match one of active, inactive

Sample answers from the record:
{"LINE NOTATION": "CC(C)OC(=O)C1=CN(C(=O)c2ccc(F)c(F)c2)CC(C)(C)c2c1[nH]c1ccccc21", "CLASS ASSIGNMENT": "inactive"}
{"LINE NOTATION": "COc1ccccc1[C@H](c1cccc2ccccc12)[C@@](C)(C#N)C(=O)N1CCC(c2cccc(C(F)(F)F)c2)CC1", "CLASS ASSIGNMENT": "inactive"}
{"LINE NOTATION": "Cc1ccc2c(c1)C(=O)[C@@]1(O)CCN(c3ccccc3)C1=N2", "CLASS ASSIGNMENT": "inactive"}
{"LINE NOTATION": "CNC(=O)c1ccccc1Sc1ccc2c(/C=C/c3ccccn3)n[nH]c2c1", "CLASS ASSIGNMENT": "inactive"}

Recorded call for CCCn1c(=O)c2[nH]c(C34CC5CC3C[C@@H](C5)C4)nc2n(CCC)c1=O ?
active

Recorded call for CCC(=O)N[C@H]1CC[C@H](C(=O)N(C)c2ccc(-c3nc4ccccc4o3)cc2)C1 ?
inactive

Recorded call for CN([C@@H](Cc1ccc(OS(=O)(=O)c2cccc3cnccc23)cc1)C(=O)N1CCN(c2ccccc2)CC1)S(=O)(=O)c1cccc2cnccc12 ?
inactive

Recorded call for CCCc1nc2c(C)cc(-c3nc4ccccc4n3C)cc2n1Cc1ccc(-c2ccccc2C(=O)O)cc1 ?
inactive

Recorded call for OCCn1cc(-c2cnc3nnn(Cc4ccc5ncccc5c4)c3n2)cn1 ?
inactive

----------
# TESTED ON: Protein phosphatase 1D (Homo sapiens)
# EXPERIMENT SUMMARY: RapidFire Mass Spectrometry qHTS Assay for Modulators of WT P53-Induced Phosphatase 1 (WIP1) (AID 1347424);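 further: amount of dephosphorylated VEPPL-S-QETFS peptide product formed by WIP1; plate controls were DMSO wells for no effect and GSK830371 inhibitor control at 10 µM for full effect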
# MEASUREMENT PARAMETERS: WIP1 dephosphorylation of phosphopeptide, RapidFire MS; series mostly up to 63 µM
Records with an inconclusive call do not appear. The source made the active and inactive calls. The call rests on the fitted dose curve; in most records, active means well fitted inhibition curve with a large enough effect; inconclusive means small, poorly fitted or top-dose-only effect; inactive means no such curve, though single readings can be large or run the other way.
OBSERVABLE: outcome

In the examples that follow, each entry is paired with its recorded outcome.
{"MOLECULE": "OC(CN1CCC(Cc2ccc(F)cc2)CC1)c1ccc(Cl)cc1 (stereo not given)", "outcome": "inactive"}
{"MOLECULE": "NC(N)=NC(=O)c1nc(Cl)c(N)nc1N", "outcome": "inactive"}
{"MOLECULE": "c1ccc([C@H]2CN3CCSC3=N2)cc1", "outcome": "inactive"}
{"MOLECULE": "O=C1CCc2cc(OCCCCc3nnnn3C3CCCCC3)ccc2N1", "outcome": "inactive"}

As a next step, examine the molecule that follows.
I have this molecule here, O=C1CCC(N2C(=O)c3ccccc3C2=O)C(=O)N1 (stereo not given) , and I need its recorded outcome.
inactive

----------
# EXPERIMENT SUMMARY: qHTS drug screen for cell cycle checkpoint inhibitors in PARPi-resistant BRCA-mutant ovarian cancer cell lines. (AID 1963452)
# MEASUREMENT PARAMETERS: PEO1/OlaR viability, CellTiter-Glo luminescence, 96 h; measured here: PEO1 parental Z-AUC; stronger effect = lower value
Field: Z-AUC. Provide a value for each of the compounds that follow.

In the examples that follow, each entry is paired with its recorded Z-AUC.
{"COMPOUND": "Nc1nc2c(ncn2COCCO)c(=O)[nH]1", "Z-AUC": -0.588}
{"COMPOUND": "CCc1cncnc1N1CCN(Cc2nc3ccc(C(F)(F)F)cc3[nH]2)CC1", "Z-AUC": -0.164}
{"COMPOUND": "Cc1[nH]c(=O)c(C#N)cc1-c1ccc2nccn2c1", "Z-AUC": -0.575}

Hi! Can you tell me Z-AUC for each of these compounds?
1. NC(N)=NC(=O)c1nc(Cl)c(N)nc1N
2. Cc1cnc(Nc2ccc(OCCN3CCCC3)cc2)nc1Nc1cccc(S(=O)(=O)NC(C)(C)C)c1
3. CCn1cc(C(=O)O)c(=O)c2cc(F)c(N3CCNC(C)C3)c(F)c21 (stereo unspecified)

1. -0.971
2. -1.63
3. -0.703

----------
Field: viability (% of control). Provide a value for each of the compounds that follow.
# EXPERIMENT SUMMARY: Cell Proliferation Assay against the TMD8 Cell Line (AID 651645);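 further: cells exposed to compound for 48 h before reading; 100% = DMSO and 0% = 9.2 µM bortezomib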
# MEASUREMENT PARAMETERS: TMD8 DLBCL cell line proliferation/viability; at 46.1 µM (top of the series) unless noted
Numbers only, in %.

{"COMPOUND": "CNCc1ccc(-c2[nH]c3cc(F)cc4c3c2CCNC4=O)cc1", "viability (% of control) (%)": 79.6}
{"COMPOUND": "CCOc1cc(C=C2C(=O)N(c3ccccc3)N=C2C)cc(Cl)c1OCC(=O)OC", "viability (% of control) (%)": 81.8}

As a next step, examine the compound that follows.
I have this compound here, CCc1ccc(CCOc2ccc(CC3SC(=O)NC3=O)cc2)nc1 (stereo not drawn) , and I need its recorded viability (% of control).
79.6

----------
# EXPERIMENT SUMMARY: qHTS drug screen for cell cycle checkpoint inhibitors in PARPi-resistant BRCA-mutant ovarian cancer cell lines. (AID 1963452)
# MEASUREMENT PARAMETERS: PEO1/OlaR viability, CellTiter-Glo luminescence, 96 h; measured here: PEO4 Z-AUC; stronger effect = lower value
Field: Z-AUC. Provide a value for each of the compounds that follow.
One number for each entry.

In the examples that follow, each entry is paired with its recorded Z-AUC.
{"COMPOUND": "Clc1ccc(Nc2nnc(Cc3ccncc3)c3ccccc23)cc1", "Z-AUC": 0.325}
{"COMPOUND": "Nc1nccc(-c2ccc3noc(-c4ccc(Cl)cc4)c3c2)n1", "Z-AUC": 0.149}
{"COMPOUND": "COc1ccccc1-c1cccc(-c2c(O)c3cc(C#N)c(Cl)cc3[nH]c2=O)c1", "Z-AUC": 0.381}
{"COMPOUND": "C/C(=C\\C(=O)Nc1ccccc1C(=O)O)c1ccc2ccccc2c1", "Z-AUC": 0.827}

Hi! Can you tell me Z-AUC for each of these compounds?
1. NC(N)=NC(=O)c1nc(Cl)c(N)nc1N
2. O=C(Nc1ccc(F)c(C(F)(F)F)c1)Nc1nnc(-c2ccncc2)s1
3. Cc1n[nH]c(C)c1Cc1sc2c(c1C(=O)N1C[C@H](O)CO1)c(=O)n(C)c(=O)n2CC(C)C

1: -0.392; 2: -0.018; 3: -0.228

----------
# EXPERIMENT SUMMARY: Quantitative High-Throughput drug screen in 47 multiple myeloma cell lines against the NCATS MIPE library collection: KMS28PE_JCRB cell viability assay (AID 1918983); further: nearly all actives have a fitted effect of over 35% in size
# MEASUREMENT PARAMETERS: KMS28PE multiple myeloma viability, CellTiter-Glo ATP, 48 h; series mostly up to 45.8 µM
Inconclusive results are not listed. Calls of active or inactive are those of the source. The call rests on the fitted dose curve; in most records, active means well fitted cell-killing curve with a large enough effect; inconclusive means small, poorly fitted or top-dose-only effect, or effect the other way; inactive means no such curve, though single readings can be large or run the other way.
Entry note: the call must match one of true for active, false for inactive

{"MOLECULE": "NS(=O)(=O)c1cc2c(cc1Cl)NC=NS2(=O)=O", "CLASS ASSIGNMENT": "false"}
{"MOLECULE": "O=C(O)CCc1ccc(NCc2cccc(Oc3ccccc3)c2)cc1", "CLASS ASSIGNMENT": "false"}
{"MOLECULE": "CN(C)c1ccc(C2Nc3ccc4ccccc4c3C3=C2C(=O)CC(C)(C)C3)cc1Br (centres undefined)", "CLASS ASSIGNMENT": "true"}
{"MOLECULE": "N=c1nc(N2CCCCC2)cc(N)n1O", "CLASS ASSIGNMENT": "false"}
{"MOLECULE": "Clc1ccc(Nc2nnc(Cc3ccncc3)c3ccccc23)cc1", "CLASS ASSIGNMENT": "true"}

Recorded call for NCCCC(N)(C(=O)O)C(F)F (centres undefined) ?
false

Recorded call for CO[C@@H]1[C@H](N(C)C(=O)c2ccccc2)C[C@H]2O[C@]1(C)n1c3ccccc3c3c4c(c5c6ccccc6n2c5c31)C(=O)NC4 ?
true

Recorded call for COc1nc(-c2ccc3c(c2)OCO3)n(-c2ccc(NC(=O)CSc3ccccc3)cc2)n1 ?
true

Recorded call for Cc1[nH]c(=O)c(C#N)cc1-c1ccc2nccn2c1 ?
false

Recorded call for CC(C)(Sc1ccc(CCN(CCCCC2CCCCC2)C(=O)NC2CCCCC2)cc1)C(=O)O ?
true

Recorded call for Oc1cccc(-c2nc(N3CCOCC3)c3oc4ncccc4c3n2)c1 ?
true
